target: EGFR-TK (Homo sapiens); construct: As a source of EGFR-TK, A431 human epidermoid carcinoma cell lysate was used; endogenous in cells; host or cells: A431 human epidermoid carcinoma cells (Triton X-100 lysate, EGFR captured by monoclonal antibody m108); test: EGFR-TK autophosphorylation inhibition (ELISA assay); format: biochemical; conditions: average ± SEM; A431 cell lysate; 3 μM ATP/5 mM MnCl2; Table 1; read-out: Autophosphorylation IC50
Sequence (P00533 25-1210): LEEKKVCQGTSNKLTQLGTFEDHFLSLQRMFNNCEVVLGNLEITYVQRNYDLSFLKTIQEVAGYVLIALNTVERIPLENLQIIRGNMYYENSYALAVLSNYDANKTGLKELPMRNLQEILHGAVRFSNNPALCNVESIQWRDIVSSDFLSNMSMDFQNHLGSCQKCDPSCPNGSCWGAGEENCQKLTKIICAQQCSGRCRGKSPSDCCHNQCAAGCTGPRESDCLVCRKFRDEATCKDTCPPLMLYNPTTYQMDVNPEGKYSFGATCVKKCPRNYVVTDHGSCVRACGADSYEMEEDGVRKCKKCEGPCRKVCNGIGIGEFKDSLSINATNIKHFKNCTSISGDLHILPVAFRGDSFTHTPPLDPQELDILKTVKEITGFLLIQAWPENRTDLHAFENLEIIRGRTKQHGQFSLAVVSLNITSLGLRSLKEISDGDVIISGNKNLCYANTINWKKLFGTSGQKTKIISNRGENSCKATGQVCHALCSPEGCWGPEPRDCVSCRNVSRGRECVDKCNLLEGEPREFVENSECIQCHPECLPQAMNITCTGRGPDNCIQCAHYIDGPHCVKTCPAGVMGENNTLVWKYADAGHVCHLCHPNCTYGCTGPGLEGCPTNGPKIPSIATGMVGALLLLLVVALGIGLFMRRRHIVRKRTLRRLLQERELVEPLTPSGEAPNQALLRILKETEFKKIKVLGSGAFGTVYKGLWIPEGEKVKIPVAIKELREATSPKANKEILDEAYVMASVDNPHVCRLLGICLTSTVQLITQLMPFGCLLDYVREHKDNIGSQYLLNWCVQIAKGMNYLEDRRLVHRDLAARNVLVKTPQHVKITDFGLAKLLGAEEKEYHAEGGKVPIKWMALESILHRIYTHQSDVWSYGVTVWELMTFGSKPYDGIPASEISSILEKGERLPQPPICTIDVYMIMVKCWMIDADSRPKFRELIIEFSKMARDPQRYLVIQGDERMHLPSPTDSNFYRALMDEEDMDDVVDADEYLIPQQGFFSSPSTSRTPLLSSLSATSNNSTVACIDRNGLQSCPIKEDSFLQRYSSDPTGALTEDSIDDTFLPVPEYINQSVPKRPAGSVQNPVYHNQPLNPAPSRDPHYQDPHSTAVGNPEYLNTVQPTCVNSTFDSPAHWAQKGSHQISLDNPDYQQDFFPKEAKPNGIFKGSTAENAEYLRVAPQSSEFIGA
experimentalEndpoint: IC50
Please append the unit to your numeric answer.

{"columns": ["structureNotation", "experimentalEndpoint", "reportedMeasurement"],
 "data": [
  ["COc1cc2ncnc(Nc3ccc(F)cc3)c2cc1OC", "IC50", "76.1 nM"],
  ["COc1cc2ncnc(Nc3cc(F)cc(C(F)(F)F)c3)c2cc1OC", "IC50", "116 nM"]
]}

// moving on: another record for IC50
Exercise: Fill in: IC50 of COc1cc2ncnc(Nc3cc(Cl)c(Cl)cc3F)c2cc1OC is ___
Key: 0.22 nM

====

biological target: EGFR-TK (Homo sapiens); construct: As a source of EGFR-TK, A431 human epidermoid carcinoma cell lysate was used; endogenous in cells; host or cells: A431 human epidermoid carcinoma cells (Triton X-100 lysate, EGFR captured by monoclonal antibody m108); assay: EGFR-TK autophosphorylation inhibition (ELISA assay); assay type: biochemical; details: read-out: IC50 toward epidermal growth factor receptor tyrosine kinase activity (autophosphorylation)
Entries annotated with measured pIC50
Value format note: pIC50 is -log10 of concentration (mol/L); just state the number.

{"columns": ["compound", "systemName", "reportedMeasurement"],
 "data": [
  ["COc1cc2ncnc(Nc3cc(F)cc(C(F)(F)F)c3)c2cc1OC [Compound 3]", "EGFR-TK (Homo sapiens)", 6.94]
]}

// moving on: another record for pIC50
Exercise: Fill in: pIC50 of COc1cc2ncnc(Nc3cc(Cl)c(Cl)cc3F)c2cc1OC [Compound 4] is ___
Key: 9.66
